Biological target: TDO (Homo sapiens, UniProt P48775)
Sequence (P48775 whole entry): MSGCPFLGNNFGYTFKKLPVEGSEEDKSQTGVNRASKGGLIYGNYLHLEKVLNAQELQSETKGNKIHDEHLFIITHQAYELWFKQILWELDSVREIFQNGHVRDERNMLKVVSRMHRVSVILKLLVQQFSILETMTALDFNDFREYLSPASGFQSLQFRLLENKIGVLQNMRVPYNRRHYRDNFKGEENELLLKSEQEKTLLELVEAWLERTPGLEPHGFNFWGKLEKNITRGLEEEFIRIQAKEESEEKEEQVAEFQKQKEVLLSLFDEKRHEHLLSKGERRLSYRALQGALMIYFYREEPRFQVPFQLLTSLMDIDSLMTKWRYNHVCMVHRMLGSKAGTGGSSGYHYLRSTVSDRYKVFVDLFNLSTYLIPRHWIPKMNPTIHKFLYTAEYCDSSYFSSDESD
Assay: hTDO biochemical coupled assay
Conditions: 330 μM L-tryptophan, 17 minutes, room temperature; read-out: hTDO biochemical assay pIC50 (converted)
compounds and their reported IC50

[
  {
    "compound": "CN1C(=O)[C@@H]2CC[C@H]1CN(c1cc(Cl)cc3[nH]ncc13)C2",
    "IC50": "< 3.16 µM"
  },
  {
    "compound": "CNC(=O)CN1CCC(c2cc(Cl)cc3[nH]ncc23)CC1",
    "IC50": "< 3.16 µM"
  },
  {
    "compound": "Clc1cc(N2CCC(N3CCOCC3)CC2)c2cn[nH]c2c1",
    "IC50": "< 3.16 µM"
  },
  {
    "compound": "CNC(=O)CN1CCN(c2cc(Cl)cc3[nH]ncc23)CC1(C)C",
    "IC50": "< 3.16 µM"
  },
  {
    "compound": "CS(=O)(=O)N1CCC2(CCN(c3cc(Cl)cc4[nH]ncc34)CC2)CC1",
    "IC50": "< 3.16 µM"
  },
  {
    "compound": "CS(=O)(=O)NCCn1cc(-c2cc(Cl)cc3[nH]ncc23)cn1",
    "IC50": "3.24 to 31.6 µM"
  },
  {
    "compound": "CN(CC1CCCN(c2cc(Cl)cc3[nH]ncc23)C1)S(C)(=O)=O (stereo not drawn)",
    "IC50": "3.24 to 31.6 µM"
  },
  {
    "compound": "Clc1cc(N2CCc3cnccc3C2)c2cn[nH]c2c1",
    "IC50": "< 3.16 µM"
  },
  {
    "compound": "CS(=O)(=O)N1CCC(c2cccc3[nH]ncc23)CC1",
    "IC50": "3.24 to 31.6 µM"
  }
]

###

Target: IDO (Homo sapiens, UniProt P14902)
Sequence (P14902 whole entry): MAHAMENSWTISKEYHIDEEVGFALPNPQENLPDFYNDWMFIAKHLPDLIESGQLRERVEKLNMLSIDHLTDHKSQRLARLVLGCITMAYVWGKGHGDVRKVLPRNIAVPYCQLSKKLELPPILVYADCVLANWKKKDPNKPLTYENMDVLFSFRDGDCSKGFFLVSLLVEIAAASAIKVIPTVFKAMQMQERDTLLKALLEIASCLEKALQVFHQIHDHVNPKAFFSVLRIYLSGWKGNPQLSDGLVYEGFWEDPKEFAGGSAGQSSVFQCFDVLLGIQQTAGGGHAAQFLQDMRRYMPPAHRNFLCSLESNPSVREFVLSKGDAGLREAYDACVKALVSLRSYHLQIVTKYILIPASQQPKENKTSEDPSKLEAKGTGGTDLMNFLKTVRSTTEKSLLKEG
Assay: hIDO biochemical coupled assay
Conditions: 45 μM L-tryptophan, 17 minutes, room temperature; read-out: hIDO biochemical assay pIC50 (converted)

[
  {
    "compound": "CC(=O)N1CC2(C1)CN(c1cc(Cl)cc3[nH]ncc13)C2 [Compound 402]",
    "IC50": "32.4 to 100 µM"
  },
  {
    "compound": "CS(=O)(=O)N1CCN(c2cccc3[nH]ncc23)CC1 [Compound 10]",
    "IC50": "> 100 µM"
  },
  {
    "compound": "CNC(=O)CC1CCN(c2cc(Cl)cc3[nH]ncc23)CC1 [Compound 364]",
    "IC50": "> 100 µM"
  },
  {
    "compound": "CS(=O)(=O)N1CCN(c2cc(OC(F)(F)F)cc3[nH]ncc23)CC1 [Compound 221]",
    "IC50": "> 100 µM"
  },
  {
    "compound": "CS(=O)(=O)N1CC2CCC1CN2c1cc(Cl)cc2[nH]ncc12 (stereo not drawn) [Compound 230]",
    "IC50": "> 100 µM"
  },
  {
    "compound": "CC(=O)NCC1CCN(c2cc(Cl)cc3[nH]ncc23)CC1 [Compound 270]",
    "IC50": "3.24 to 31.6 µM"
  },
  {
    "compound": "CN(CC1CCCN(c2cc(Cl)cc3[nH]ncc23)C1)S(C)(=O)=O (stereo not drawn) [Compound 285]",
    "IC50": "> 100 µM"
  },
  {
    "compound": "Cn1cc2c(n1)CCN(c1cc(Cl)cc3[nH]ncc13)C2 [Compound 360]",
    "IC50": "32.4 to 100 µM"
  },
  {
    "compound": "CC(=O)N1CCC(c2cc(C(C)C)cc3[nH]ncc23)CC1 [Compound 222]",
    "IC50": "3.24 to 31.6 µM"
  }
]
